# System Tested: T1, Avi/His-HuIL18BPa (recombinant human IL-18BP isoform A with Avi and poly-His tags) (human, biotinylated with BirA on the Avi tag in some assays)
# T1 chain: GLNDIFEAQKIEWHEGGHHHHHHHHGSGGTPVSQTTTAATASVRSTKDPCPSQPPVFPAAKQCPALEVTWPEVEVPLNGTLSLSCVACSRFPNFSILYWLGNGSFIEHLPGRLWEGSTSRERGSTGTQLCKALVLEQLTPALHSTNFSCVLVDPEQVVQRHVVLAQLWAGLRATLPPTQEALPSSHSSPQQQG
# Protocol Details: cell-based or functional assay
Readout Name: EC50 of IFNγ release, human PBMCs
Dear colleague, please send the value followed by its unit.

Below, each entry is followed by its recorded EC50 of IFNγ release, human PBMCs result.
anti-IL-18BP antibody variant BP-04.26 (antibody, V domains shown) VH: QVQLVQSGAEVKKPGASVKVSCKASGYTFTDYDMHWVRQAPGQGLEWMGIYSTYYGVVSYAQKFQGRVTMTRDKSTSTVYMELSSLRSEDTAVYYCARSGTYYYGTRESHALDYWGQGTLVTVSS VL: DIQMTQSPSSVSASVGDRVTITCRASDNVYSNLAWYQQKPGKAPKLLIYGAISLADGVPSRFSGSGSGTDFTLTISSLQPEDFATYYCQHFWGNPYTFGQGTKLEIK: 36.2 nM
anti-IL-18BP antibody variant BP-04.20 (antibody, V domains shown) VH: QVQLVQSGAEVKKPGASVKVSCKASGYTFTDYDMHWVRQAPGQGLEWMGIISTYYGVVSYAQKFQGRVTMTRDKSTSTVYMELSSLRSEDTAVYYCARSGTYYYGTRESHPLDYWGQGTLVTVSS VL: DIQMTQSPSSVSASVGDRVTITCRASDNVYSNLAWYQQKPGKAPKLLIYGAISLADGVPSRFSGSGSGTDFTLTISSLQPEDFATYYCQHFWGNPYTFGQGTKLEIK: 4.06 nM

Okay, now this binder:
EC50 of IFNγ release, human PBMCs in this record for anti-IL-18BP antibody variant BP-04.17 (antibody, V domains shown) VH: QVQLVQSGAEVKKPGASVKVSCKASGYTFTDYDMHWVRQAPGQGLEWMGIISTYYGDVSYAQKKQGRVTMTRDKSTSTVYMELSSLRSEDTAVYYCARSGTYYYGTRESHPLDYWGQGTLVTVSS VL: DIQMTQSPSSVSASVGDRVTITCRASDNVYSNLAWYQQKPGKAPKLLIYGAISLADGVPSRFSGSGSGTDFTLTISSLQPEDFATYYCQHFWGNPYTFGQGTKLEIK : 8.89 nM
